Cited source: patent US20240043568A1

Biological target: T1, human CD3 on T cells (human, UniProt P07766 23-207)
T1 construct: whole, on cells; The target is the native CD3 complex on cells; The recombinant antigen used elsewhere is the εγ heterodimer; also called CD3 on Jurkat cells; CD3 on human peripheral blood CD4+ and CD8+ T cells
Assay: flow cytometry, Jurkat cells
Measured Quantity: pEC50
The scale used: pEC50 is minus the common logarithm of the concentration in molar units.

Below, 4 binders whose answers are already recorded.
{"Binder": "aCD3-hVH8/VL1 (antibody, V domains shown, Human IgG4, lambda) VH: EVQLVESGGGLVQPGGSLRLSCAASGFTFNTYAMNWVRKAPGKGLEWVGRIRSKYNNYATYYADSVKDRFTISRDDSKNSLYLQMNSLKTEDTAVYYCARHGNFGNSYVSWFAYWGQGTLVTVSS VL: QAVVTQEPSLTVSPGGTVTLTCRSSTGAVTTSNYANWVQQKPGQAPRGLIGGTNKRAPWTPARFSGSLLGGKAALTLSGAQPEDEAEYYCALWYSNLWVFGGGTKLTVL", "Observed Value": 7.82}
{"Binder": "aCD3-hVH9/VL5 (antibody, V domains shown, Human IgG4, lambda) VH: EVQLVESGGGLVQPGGSLRLSCAASGFTFNTYAMNWVRKAPGKGLEWVGRIRSKYNNYATYYADSVKDRFTISRDDSKNSLYLQMNSLKTEDTAVYYCVRHGNFGNSYVSWFAYWGQGTLVTVSS VL: QAVVTQEPSLTVSPGGTVTLTCRSSTGAVTTSNYANWVQEKPGQAPRGLIGGTNKRAPWTPARFSGSLLGGKAALTITGAQAEDEAEYYCVLWYSNLWVFGGGTKLTVL", "Observed Value": 7.70}
{"Binder": "aCD3-hVH9/VL2 (antibody, V domains shown, Human IgG4, lambda) VH: EVQLVESGGGLVQPGGSLRLSCAASGFTFNTYAMNWVRKAPGKGLEWVGRIRSKYNNYATYYADSVKDRFTISRDDSKNSLYLQMNSLKTEDTAVYYCVRHGNFGNSYVSWFAYWGQGTLVTVSS VL: QAVVTQEPSLTVSPGGTVTLTCRSSTGAVTTSNYANWVQEKPGQAPRGLIGGTNKRAPWTPARFSGSLLGGKAALTLSGAQPEDEAEYYCALWYSNLWVFGGGTKLTVL", "Observed Value": 7.60}
{"Binder": "aCD3-hVH1/VL5 (antibody, V domains shown, Humanized CD3 antibody with human IgG4 CH1-CH3 and a lambda light chain constant region) VH: EVQLVESGGGLVQPGGSLRLSCAASGFTFNTYAMNWVRQAPGKGLEWVSRIRSKYNNYATYYADSVKDRFTISRDDSKNTLYLQMNSLRAEDTAVYYCVRHGNFGNSYVSWFAYWGQGTLVTVSS VL: QAVVTQEPSLTVSPGGTVTLTCRSSTGAVTTSNYANWVQEKPGQAPRGLIGGTNKRAPWTPARFSGSLLGGKAALTITGAQAEDEAEYYCVLWYSNLWVFGGGTKLTVL", "Observed Value": 8.00}

Field: next binder
Look up pEC50 for this binder: aCD3-hVH9/VL1 (antibody, V domains shown, Human IgG4, lambda) VH: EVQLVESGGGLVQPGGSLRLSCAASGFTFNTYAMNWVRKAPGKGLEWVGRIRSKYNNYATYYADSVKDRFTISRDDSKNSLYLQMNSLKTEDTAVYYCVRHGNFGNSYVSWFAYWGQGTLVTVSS VL: QAVVTQEPSLTVSPGGTVTLTCRSSTGAVTTSNYANWVQQKPGQAPRGLIGGTNKRAPWTPARFSGSLLGGKAALTLSGAQPEDEAEYYCALWYSNLWVFGGGTKLTVL
8.15
